Target: CYP11A1 (Homo sapiens)
Construct: human H295R adrenocortical carcinoma cell line was used as source of enzyme; endogenous in cells
Sequence (P05108 40-521): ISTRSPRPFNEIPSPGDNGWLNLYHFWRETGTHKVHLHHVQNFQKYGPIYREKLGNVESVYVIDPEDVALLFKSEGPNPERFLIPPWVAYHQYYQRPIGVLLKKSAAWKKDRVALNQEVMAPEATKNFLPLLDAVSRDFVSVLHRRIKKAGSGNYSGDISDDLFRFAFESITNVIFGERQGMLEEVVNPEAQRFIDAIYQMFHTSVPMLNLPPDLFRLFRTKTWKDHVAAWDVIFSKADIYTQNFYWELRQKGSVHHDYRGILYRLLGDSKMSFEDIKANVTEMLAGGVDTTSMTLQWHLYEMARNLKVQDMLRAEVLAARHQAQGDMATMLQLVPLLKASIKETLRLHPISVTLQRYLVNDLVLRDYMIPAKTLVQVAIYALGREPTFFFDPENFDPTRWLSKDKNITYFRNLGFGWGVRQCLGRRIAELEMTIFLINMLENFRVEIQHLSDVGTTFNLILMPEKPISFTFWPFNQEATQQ
Assay: CYP11A1 inhibition, isocaproic acid release assay (IARA) in H295R cells
Details: human H295R adrenocortical carcinoma cells treated three days, 3 nM [24,25-3H]-labelled cholesterol, 1% DMSO; read-out: IC50 on CYP11A1 inhibition (Group)
recorded endpoint: IC50

Entry under test: COC(=O)c1ccc(COc2ccc(CN3Cc4ccccc4C3)cc2OC)cc1 . Its IC50 was 0.351 to 1.5 µM

The measured IC50 associated with COCCN(C)C(=O)c1ccc(COc2ccc(CN3Cc4ccccc4C3)cc2OC)cc1 reads < 0.15 µM

Reported IC50 ( CN(C)C(=O)c1ccc(COc2ccc(CN3Cc4ccccc4C3)c3cccnc23)cc1 ) = < 0.15 µM

Provide IC50 for all items below, preserving their order.
1. COCCNS(=O)(=O)c1ccc(COc2ccc(CN3Cc4ccccc4C3)cc2OC)cc1
2. CS(=N)(=O)c1ccc(COc2ccc(CN3Cc4ccccc4C3)c3ocnc23)cc1 (centres unmarked)

A:
1: < 0.15 µM; 2: 0.351 to 1.5 µM

Hey, can you go through the list below and give me IC50 for every item?
1. CC(=O)c1cc(CN2Cc3ccccc3C2)ccc1OCC1CCC(S(C)(=O)=O)CC1 (centres unmarked)
2. COc1c(OCc2ccc(S(C)(=O)=O)cc2)ccc(CN2Cc3ccccc3C2)c1F
3. Cn1ncc2c(CN3Cc4ccccc4C3)ccc(OCC3CCN(S(C)(=O)=O)CC3)c21

A:
1: 0.151 to 0.35 µM; 2: < 0.15 µM; 3: < 0.15 µM

###

Molecular target: CYP11A1 (Homo sapiens)
Construct: human H295R adrenocortical carcinoma cell line was used as source of enzyme; endogenous in cells
Assay: CYP11A1 inhibition, isocaproic acid release assay (IARA) in H295R cells
Conditions: human H295R adrenocortical carcinoma cells treated three days, 3 nM [24,25-3H]-labelled cholesterol, 1% DMSO; read-out: IC50 on CYP11A1 inhibition (Group)
pIC50: −log10 of the molar value.
recorded endpoint: pIC50

Form field pIC50, entry CS(=O)(=O)N1CCC(COc2ccc(CN3Cc4ccccc4C3)c3cn[nH]c23)CC1 : > 6.82

# return pIC50 for each item in the list
1. CN(C)C(=O)c1ccc(COc2cc(F)c(CN3Cc4ccccc4C3)c(F)c2)cc1
2. CCOc1cc(CN2Cc3ccccc3C2)ccc1OCc1ccc(C(=O)N(C)C)cc1
3. COc1cc(CN2Cc3ccccc3C2)ccc1OCc1ccc(S(C)(=O)=O)cc1
4. COCCc1cc(CN2Cc3ccccc3C2)ccc1OCC1CCN(S(C)(=O)=O)CC1
5. CN(C)C(=O)c1ccc(COc2ccc(CN3Cc4ccccc4C3)cc2Cl)cc1
6. CN(C)C(=O)c1ccc(COc2ccc(CN3Cc4ccccc4C3)cc2OCC(F)(F)F)cc1
7. CN(C)C(=O)c1ccc(COc2ccc(CN3Cc4ccccc4C3)cc2OCC(N)=O)cc1

A:
["6.46 to 6.82", "6.46 to 6.82", "> 6.82", "6.46 to 6.82", "6.46 to 6.82", "6.46 to 6.82", "> 6.82"]

The following compounds each have a reported value; give each one's pIC50.
1. C=CCc1cc(CN2Cc3ccccc3C2)ccc1OCc1ccc(C(=O)N(C)C)cc1
2. CN(C)C(=O)c1ccc(COc2cc(F)c(CN3Cc4ccccc4C3)cc2F)cc1

A:
["6.46 to 6.82", "> 6.82"]

The following compounds each have a reported value; give each one's pIC50.
1. COCc1cc(CN2Cc3ccccc3C2)ccc1OCc1ccc(C(=O)N(C)C)cc1
2. COc1cc(CN2Cc3ccccc3C2)cc(F)c1OCc1ccc(C(=O)N(C)C)cc1

A:
1: 6.46 to 6.82; 2: 5.82 to 6.45

Quick one: give me pIC50 for each item below, same order please.
1. CN(C)C(=O)c1ccc(COc2ccc(CN3Cc4ccccc4C3)c(F)c2F)cc1
2. CS(=O)(=O)N1CCC(COc2ccc(CN3Cc4ccccc4C3)c3cccnc23)CC1
3. CCS(=O)(=O)c1ccc(COc2ccc(CN3Cc4ccccc4C3)cc2C(C)=O)cc1
4. CS(=O)(=O)N1CCC(COc2ccc(CN3Cc4ccccc4C3)cc2C(F)(F)F)CC1
5. COc1cc(OCc2ccc(C(=O)N(C)C)cc2)ccc1CN1Cc2ccccc2C1

A:
1. 5.82 to 6.45
2. > 6.82
3. > 6.82
4. 6.46 to 6.82
5. 5.82 to 6.45
